The following compounds are shown together with reported selectivity ratio values.
test_summary: Selectivity index, ratio of CC50 for human C8166-CCR5 cells to EC50 for HIV1 NL4-3
Format: toxicity, cell-based
test_context: read-out: Ratio CC50/EC50
Answer with a number only.

Below, 3 compounds whose answers are already recorded.
[[record]]
compound_structure = "CO[C@@H]1CC[C@]2(C)[C@H](CC[C@@]3(C)CC4=CC[C@@H]5C(C)(C)[C@H](OC(=O)CCC(=O)Oc6c(O)cc7oc(-c8ccccc8)cc(=O)c7c6O)CC[C@@]5(C)[C@@H]4CC[C@@H]32)C1(C)C"
observed_measurement = 4.9

[[record]]
compound_structure = "CO[C@H]1CC[C@]2(C)[C@H](CC[C@@]3(C)CC4=CC[C@@H]5C(C)(C)[C@H](OC(=O)CCC(=O)Oc6c(O)cc7oc(-c8ccccc8)cc(=O)c7c6O)CC[C@@]5(C)[C@@H]4CC[C@@H]32)C1(C)C"
observed_measurement = 2.3

[[record]]
compound_structure = "CO[C@@H]1CC[C@]2(C)[C@H](CC[C@@]3(C)CC4=CC[C@@H]5C(C)(C)[C@H](OC(=O)CCC(=O)Oc6coc(CO)cc6=O)CC[C@@]5(C)[C@@H]4CC[C@@H]32)C1(C)C"
observed_measurement = 5.4


# next compound below
Entry CO[C@@H]1CC[C@]2(C)[C@H](CC[C@@]3(C)CC4=CC[C@@H]5C(C)(C)[C@H](OC(=O)CCC(=O)OCc6cc(=O)c(OC(=O)CCC(=O)O[C@@H]7CC[C@@]8(C)[C@@H]9CC[C@H]%10[C@@](C)(CC[C@@H]%11C(C)(C)[C@H](OC)CC[C@]%11%10C)CC9=CC[C@@H]8C7(C)C)co6)CC[C@@]5(C)[C@@H]4CC[C@@H]32)C1(C)C : reported selectivity ratio = ?
35
